Assay: Down regulation of PCSK9 mRNA expression in human HepG2 cells incubated for 24 hrs by SYBR green dye-based qRT-PCR analysis
Assay type: functional, cell-based
Settings: HepG2, 24 h
Exercise: state measured IC50 for each of the compounds provided.
Expressed in µM, but write only the number.

Lookup result for `CO[C@@H]1CC(=O)[C@H](C)[C@H]2C/C(=C(\C)C(=O)O)C[C@@]21C` ; measured IC50: 24.4

Recorded result, COc1ccc2cc3[n+](cc2c1OC)CCc1cc2c(cc1-3)OCO2 [BERBERINE CHLORIDE] , IC50: 13.8

Note to self: IC50 recorded for `CO[C@]12C[C@@]3(C)[C@H](OC(C)=O)C(=O)C=C(C)[C@@H]3CC1=C(C)C(=O)O2` was 25.2

Value of measured IC50 for the entry `CC1=C2C[C@@H]3[C@@H](C)C(=O)C=C[C@@]3(C)C[C@@]2(O)OC1=O` : 27.8
